The origin of these recorded values is patent EP4289863A9.

# EXPERIMENTAL SYSTEM: T1, human IL-36R (human, UniProt Q9HB29 20-575)
# T1 sequence (looked up): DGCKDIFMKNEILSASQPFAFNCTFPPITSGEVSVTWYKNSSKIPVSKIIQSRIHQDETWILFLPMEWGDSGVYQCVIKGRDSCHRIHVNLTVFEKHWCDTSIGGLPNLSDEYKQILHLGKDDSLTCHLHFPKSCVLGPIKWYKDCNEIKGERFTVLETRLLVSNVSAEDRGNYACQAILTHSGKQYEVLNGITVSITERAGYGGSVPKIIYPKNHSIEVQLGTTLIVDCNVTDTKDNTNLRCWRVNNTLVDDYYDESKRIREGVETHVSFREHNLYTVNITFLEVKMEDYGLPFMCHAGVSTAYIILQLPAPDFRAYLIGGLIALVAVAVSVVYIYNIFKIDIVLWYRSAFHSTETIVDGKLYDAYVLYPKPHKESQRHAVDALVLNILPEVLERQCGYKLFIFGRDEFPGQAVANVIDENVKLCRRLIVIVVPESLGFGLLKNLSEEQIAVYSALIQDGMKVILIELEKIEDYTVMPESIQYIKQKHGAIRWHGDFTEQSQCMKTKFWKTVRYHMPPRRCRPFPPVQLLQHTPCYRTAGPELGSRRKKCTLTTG
# PROTOCOL: cell-based or functional assay
So I've got a bunch of binders here, and I need their IC50 of GM-CSF release, NCI/ADR-RES cells stimulated with IL-36γ values.
One number for each entry, in µg/mL.

Consider the reported IC50 of GM-CSF release, NCI/ADR-RES cells stimulated with IL-36γ for these binders:
- BINDER: "humanized anti-IL-36R antibody 900527 (antibody, V domains shown, IgG1 (vector with L234A, L235A) and human kappa) VH: QVQLVQSGAEVKKPGASVKVSCKASGYTFTSSWMHWAKQAPGQGLEWIGEIHPNSAKTNYNQKFQGRVTMTRDTSISTAYMELSRLRSDDTAVYYCARVDYGKPWFAYWGQGTLVTVSS VL: QIVLTQSPGTLSLSPGERATLSCRASSSVSSSYLHWYQQKPGQAPRLWIYSTSSRATGIPDRFSGSGSGTDFTLTISRLEPEDFATYYCQQFQSSPLTFGQGTKLEIK"
  RESULT UNIT: "µg/mL"
  MEASURED VALUE: 0.0198
- BINDER: "anti-IL-36R chimeric antibody 900497 (antibody, V domains shown, Human-mouse chimera: human IgG1 heavy constant region with L234A and L235A (Eu numbering), human kappa light constant region) VH: QVQLQQTGSVLVRPGTSVKLSCKASGYTFTSSWMHWAKQRPGQGLEWIGEIHPNSAKTNYNEKFKGKATLTVDTFSSTAYVDLSSLASEDSAVYYCARVDYGKPWFAYWGQGTLVTVSA VL: QIVLTQSPTIMSASPGERVTMTCSASSSVSSSYLHWYQQKPGSSPKLWIYSTSNLASGVPARFSGSGSGTSYSLTINSMEAEDAATYYCQQFQSSPLTFGAGTKLGLK"
  RESULT UNIT: "µg/mL"
  MEASURED VALUE: 0.0288

// below: IC50 of GM-CSF release, NCI/ADR-RES cells stimulated with IL-36γ requested for another binder
Query block: Param item = humanized anti-IL-36R antibody 900534 (antibody, V domains shown, IgG1 (vector with L234A, L235A) and human kappa) VH: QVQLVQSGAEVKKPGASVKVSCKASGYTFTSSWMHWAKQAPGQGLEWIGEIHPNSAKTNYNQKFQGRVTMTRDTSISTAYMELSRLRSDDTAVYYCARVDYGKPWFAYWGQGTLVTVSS VL: QIVLTQSPGTLSLSPGERATLSCRASSSVSSSYLHWYQQKPGQAPRLLIYSTSSRATGIPDRFSGSGSGTDFTLTISRLEPEDFATYYCQQFQSSPLTFGQGTKLEIK ; retrieve measured IC50 of GM-CSF release, NCI/ADR-RES cells stimulated with IL-36γ.
Result block: 0.021
